Tested on: DU-145 prostate
Assay: NCI-60 one-dose screen, 48 h (100 = growth as untreated, 0 = no growth, -100 = all killed)
Details: 10 µM unless noted
Experimental: Cells are grown in 96 well plates and exposed to the test compound for 48 hours. Compounds are tested at a single concentration, which is 10^-5 M for most compounds. The reported endpoint is percent growth (GI% or GIPRCNT), where numbers from 0 - 100% represent growth inhibition, and numbers from -100% - 0 represent cell death. For example, a value of 40 represents 60% growth inhibition. A value of 0 means no net growth occurred over the course of the experiment. […]
About 83,000 compounds went through this panel and 20% of them were active in at least one assay; those are over-represented in the sample as a whole.
Checkbox rule: growth lower than 90% = Satisfied; growth not lower than 90% = Not satisfied.

Req: Decide: growth of O=C(/C=C/c1ccccc1)c1cccc2ccccc12 strictly below 90%?
Resp: Satisfied

Req: Decide: growth of Clc1ccc2nn3c4ccccc4c(OCCN4CCOCC4)nc3c2c1 strictly below 90%?
Resp: Not satisfied

Req: Decide: growth of CCN(CCNc1ccc(C)c2sc3cc(Cl)ccc3c(=O)c12)CC(C)(C)O strictly below 90%?
Resp: Satisfied

Req: Decide: growth of COCCn1cc(-c2nc(-c3cn(CCOC)c4ncccc34)cs2)c2cc(F)ccc21 strictly below 90%?
Resp: Satisfied

Req: Decide: growth of CN(C)c1ccc(C(=S)c2ccc(N(C)C)cc2)cc1 strictly below 90%?
Resp: Not satisfied

Req: Decide: growth of NCCCNc1nc2ccccc2c2c(=O)c3cc(Cl)ccc3sc12 strictly below 90%?
Resp: Satisfied

Req: Decide: growth of O=C1C=C(SCCO)C(=O)c2ccccc21 strictly below 90%?
Resp: Satisfied

Req: Decide: growth of O=C(CN1C(=O)S/C(=C\C(Cl)=C\c2ccccc2)C1=O)NC1CCS(=O)(=O)C1 (stereo not given) strictly below 90%?
Resp: Satisfied

Req: Decide: growth of COc1ccc(CN2C(=O)OC(C)(COC(C)=O)C2=O)cc1 (stereo not given) strictly below 90%?
Resp: Not satisfied

Req: Decide: growth of O=c1oc2c(cc1-c1ccccc1)c(=O)[nH]c1ccccc12 strictly below 90%?
Resp: Not satisfied

Req: Decide: growth of O=C(O)c1cn(C2CC2)c2cc(N3CCN(C(=O)N/N=C/c4cccc5ccccc45)CC3)c(F)cc2c1=O strictly below 90%?
Resp: Not satisfied

Req: Decide: growth of O=C1C(Cl)=C(Nc2ccccc2)C(=O)c2ccccc21 strictly below 90%?
Resp: Satisfied

Req: Decide: growth of Cc1ccc(C(=O)c2ccc(CC(=O)N/N=C/c3cccc(O)c3O)n2C)cc1 strictly below 90%?
Resp: Satisfied

Req: Decide: growth of O=C(CCCCCCCC(=O)N1CCCCC1)N1CCCCC1 strictly below 90%?
Resp: Not satisfied

Req: Decide: growth of COc1cc2c(c(OC)c1OC)C(=O)CC(c1cccc(C(=O)Nc3ccccc3Br)c1)O2 (stereo not given) strictly below 90%?
Resp: Satisfied
